Molecular target: Prostaglandin G/H synthase 2 (Homo sapiens, UniProt P35354)
Sequence (P35354 whole entry): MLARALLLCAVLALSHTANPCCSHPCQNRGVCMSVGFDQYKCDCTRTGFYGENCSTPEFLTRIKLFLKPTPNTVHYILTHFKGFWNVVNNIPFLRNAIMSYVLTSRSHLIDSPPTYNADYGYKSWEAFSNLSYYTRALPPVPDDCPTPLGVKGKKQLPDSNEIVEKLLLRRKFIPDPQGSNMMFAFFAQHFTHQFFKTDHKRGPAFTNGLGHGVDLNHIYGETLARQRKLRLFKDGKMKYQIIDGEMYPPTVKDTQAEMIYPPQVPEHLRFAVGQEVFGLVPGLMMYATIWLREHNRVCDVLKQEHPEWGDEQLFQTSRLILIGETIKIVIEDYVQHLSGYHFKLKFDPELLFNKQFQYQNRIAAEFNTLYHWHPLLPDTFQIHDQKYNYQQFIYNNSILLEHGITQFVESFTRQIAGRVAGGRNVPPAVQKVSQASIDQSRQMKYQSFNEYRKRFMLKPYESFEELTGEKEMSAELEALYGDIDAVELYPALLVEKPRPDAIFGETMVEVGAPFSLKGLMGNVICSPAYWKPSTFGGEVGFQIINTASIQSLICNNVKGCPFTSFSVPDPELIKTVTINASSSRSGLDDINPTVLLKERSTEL
Assay: Inhibition of human recombinant COX2 by EIA
measurement.kind: IC50 (µM)

Reference set (4 entries):
CCCC/C(=C(\c1ccccc1)c1ccc(O)cc1)c1ccc(S(C)(=O)=O)cc1; 11.8
CCCC/C(=C(\c1ccccc1)c1ccc(OC)cc1)c1ccc(S(C)(=O)=O)cc1; 7.7
CC/C(=C(\c1ccccc1)c1ccc(OC)cc1)c1ccc(S(C)(=O)=O)cc1; 10.7
CCC(=C(c1ccccc1)c1ccccc1)c1ccc(S(C)(=O)=O)cc1; 1.2

A. CCCC/C(=C(\c1ccccc1)c1ccc(OCCF)cc1)c1ccc(S(C)(=O)=O)cc1
B. CCCCC(=C(c1ccccc1)c1ccccc1)c1ccc(S(C)(=O)=O)cc1
Hi! Which is lower in terms of IC50, the first one A or the second one B ? Your answer should be the label attached to the chosen record.
B
